So I've got a bunch of binders here, and I need their Classification values.
molecular target: GST-CARD14 PDZ domain 1 (Homo sapiens (Human)), Q9BXL6; test: G' assay; further: key of the grades not given here
Sequence (Q9BXL6 565-664): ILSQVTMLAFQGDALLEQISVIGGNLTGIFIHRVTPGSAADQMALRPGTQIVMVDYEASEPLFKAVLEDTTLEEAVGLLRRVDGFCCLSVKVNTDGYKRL
Just the number in A450 class, nothing appended.

Entry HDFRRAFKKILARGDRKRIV (modifications not checked) [alpha-2A Adrenergic receptor] : reported Classification = ? 1

Entry DFRPSFKHILFRRARRGFRQ (modifications not checked) [alpha-2C Adrenergic receptor] : reported Classification = ? 5

Entry LAVLAYSITLVMLWSIWQYA (modifications not checked) [Serotonin receptor 3a] : reported Classification = ? 2

Entry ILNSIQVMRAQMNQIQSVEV (modifications not checked) [ephrin B2] : reported Classification = ? 1

Each recorded value in this set is attributed to patent US20050282743A1.
